system: HL-60; assay: NCI tumour cell line growth inhibition, 48 h
Activity calls are given as the source filed them. Rule as the data show it: active = GI50 up to about 1.1 µM and inactive = higher.
Known GI50 of a selection of compounds
Measurement Label: GI50

INSERT INTO measurements (compound, result_value) VALUES
  ('CC1(C)O[C@H]2Cn3c(c(C#N)c4ccccc43)[C@H]2O1', '> 100 µM (inactive)'),
  ('NS(=O)(=O)c1ccc(/N=N/c2cc3ccccc3c(C(=O)O)c2O)cc1', '> 100 µM (inactive)'),
  ('CN(C)c1ccc(C(c2ccc(Cl)cc2)c2ccc(N(C)C)cc2)cc1', '> 100 µM (inactive)'),
  ('CCCCCCCCCCCC1CC(=O)NCCCN(C)CCCCN(C)CCCN1C (stereo unspecified)', '0.395 µM (active)'),
  ('C=CC(C)(C)/C=C/c1ccc(O)cc1', '37.6 µM (inactive)'),
  ('CC1(C)OC2OC(C(=O)c3ccccc3)C3OC(C)(C)OC3C2O1 (stereo unspecified)', '> 100 µM (inactive)'),
  ('O=C(CCCCCCCCCCc1ccccc1)c1c(O)cccc1O', '25.1 µM (inactive)'),
  ('Cc1cc(Cl)ccc1NC(=O)CCCC(=O)C1CCCC1=O (stereo unspecified)', '> 100 µM (inactive)'),
  ('[N-]=[N+]=N[C@H]1C[C@@H](CO)O[C@H]1n1cnc2c(N)ncnc21', '> 100 µM (inactive)'),
  ('CCOC(=O)/C(=C/c1ccc(C(F)(F)F)cc1)N(CC)CC', '> 100 µM (inactive)'),
  ('C=CCN(C(=O)OC(C)(C)C)[C@H](C)C(=O)N[C@@H](C)C(=O)OC', '1.2 µM (inactive)'),
  ('CC[C@@]12CCC(=S)N(CCSc3ccccc3)[C@@H]1c1c(n(S(=O)(=O)c3ccc(OC)cc3)c3ccccc13)CC2', '> 100 µM (inactive)'),
  ('Cc1ccc2c(C(=O)c3c(C)n(CCN4CCOCC4)c4ccccc34)cccc2c1', '2.57 µM (inactive)'),
  ('COc1ccc(CC2(Cc3ccc(OC)cc3)CCOC2=O)cc1', '> 100 µM (inactive)'),
  ('CCOC1NC(/N=C/c2ccc(OC)cc2)=C(C#N)C1C#N (stereo unspecified)', '37.5 µM (inactive)'),
  ('Cc1nc2c(n1-c1ccccc1)C(=O)c1ccccc1C2=O', '14.7 µM (inactive)'),
  ('O=C(O)C1Cc2[nH]cnc2CN1 (stereo unspecified)', '> 100 µM (inactive)'),
  ('CC1(C)C2CC3C4CC5(Nc6ccccc6C5N41)[C@]3(C)CC2=O (stereo partly specified)', '> 50 µM (inactive)'),
  ('O=C1NC(=O)C(c2c[nH]c3cc(Br)ccc23)=C1c1cn(C(c2ccccc2)(c2ccccc2)c2ccccc2)cn1', '13.7 µM (inactive)'),
  ('Cc1cn(Cc2ccccc2CCO)c(=S)[nH]c1=O', '> 100 µM (inactive)'),
  ('COc1cc(/C=C2\C(=O)N(c3cccc([N+](=O)[O-])c3)C(c3ccccc3)S2(=O)=O)cc(OC)c1OC (stereo unspecified)', '84.7 µM (inactive)');

* * *

test system: OVCAR-5; assay: NCI tumour cell line growth inhibition, 48 h
The source made the active and inactive calls. Rule as the data show it: active = GI50 up to about 1.1 µM and inactive = higher.
Measurement Label: GI50

INSERT INTO results (compound, result_value) VALUES
  ('COC(CN(C(=O)c1ccccc1)C1CCC2(SCCS2)c2[nH]c3ccccc3c21)OC (stereo not drawn)', '33.7 µM (inactive)'),
  ('COC(=O)C(CC(=O)c1cc2c(cc1I)OCO2)Cc1cc(OC)c(OC)c(OC)c1I (stereo not drawn)', '2.88 µM (inactive)'),
  ('CC1(C)OC2OC(C(=O)c3ccccc3)C3OC(C)(C)OC3C2O1 (stereo not drawn)', '> 100 µM (inactive)');
